# assay_remarks: Inhibition of H1N1 influenza virus neuraminidase using MUNANA as substrate measured after 60 mins by fluorescence assay
# Parameters: species or system H1N1 subtype
measurement_name: IC50 (µM)
Answer format: numeric, µM implied, no suffix.

Query block: Check the records and state IC50 for CCOC(=O)C1=C(C)N=C(NC(C)=O)SC1c1ccccc1OCC (stereo unspecified)
Result block: 80.1

* * *

# Test system: Influenza A virus (A/Puerto Rico/8/1934(H1N1))
# assay_remarks: Inhibition of Influenza A virus A/Puerto Rico/8/1934(H1N1) neuraminidase at 40 ug/ml using MUNANA as substrate measured after 60 mins by fluorescence assay relative to control
# study_conditions: dose 40.0 µg/ml
Examples of molecules with documented inhibition follow.
Note: unit % is implicit; provide only the numeric part.

Query block: Under Influenza A virus (A/Puerto Rico/8/1934(H1N1)): report inhibition of `CCOC(=O)c1sc(/N=C2\NC(=O)/C(=C/c3cccc(C)c3)S2)nc1C` .
Result block: 35.4
